Test: LNP size and polydispersity index (PDI) by dynamic light scattering
Format: physicochemical
Conditions: LNP with cirRNA (SEQ ID NO: 1)
Listing of recorded PDI by entry.
reported metric: PDI

> print(dat)
                                   compound   number
1  CCCCCCCCC(CCCCCCCC)OC(=O)CCCCCCCN(CCCCCCCCOC(=O)C(CCCCCC)CCCCCCCC)CCCOC(=O)NCCCN(CC)CC (stereo not shown)    0.264
2  CCCCCCCCCCCOC(=O)CCCCCN(CCCCCC(=O)OCCCCCCCCCCC)CCOC(=O)NCCCN(C)C  0.09308
3  CCCCCCCCCC(=O)OCCCCCCCN(CCCCCCCCOC(=O)C(CCCCCC)CCCCCCCC)CCOC(=O)NCCN1CCN(C)CC1 (stereo not shown)   0.2967
4  CCCCC/C=C\C/C=C\CCCCCCCCN(CCCCCCCC(=O)OC(CCCCCCCC)CCCCCCCC)CCOC(=O)NCCN(C)C     0.08
5  CCCCCCCCC(CCCCCC)C(=O)OCCCCCCCCN(CCCCCCCCOC(=O)C(CCCCCC)CCCCCCCC)CCOC(=O)NCc1ccc(NC(=O)OC(C)(C)C)cc1 (stereo not shown)    0.162
6  CCCCCCCC/C=C\CCCCCCCCN(CCCCCCCCOC(=O)C(CCCCCC)CCCCCCCC)CCOC(=O)NCCN1CCCCC1 (stereo not shown)   0.1125
7  CCCCC/C=C\C/C=C\CCCCCCCCN(CCCCCCCC(=O)OC(CCCCCCCC)CCCCCCCC)CCOC(=O)NCCN1CCN(C)CC1   0.1211
